B1: Caulobacter ParB omega fusion; a variant is named by its letters at X, in order, B8GW30 (parent)
chain: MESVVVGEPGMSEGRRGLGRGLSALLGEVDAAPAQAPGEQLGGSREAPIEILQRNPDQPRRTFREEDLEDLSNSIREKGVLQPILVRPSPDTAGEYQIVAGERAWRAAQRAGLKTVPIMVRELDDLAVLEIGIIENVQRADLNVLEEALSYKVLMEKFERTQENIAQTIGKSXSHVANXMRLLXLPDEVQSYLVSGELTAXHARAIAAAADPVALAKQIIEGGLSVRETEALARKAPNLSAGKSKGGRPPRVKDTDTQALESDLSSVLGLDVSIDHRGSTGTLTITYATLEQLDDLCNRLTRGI

# Variants of: B1
# PROTOCOL: one-hybrid fitness for binding NBS DNA (the Noc-binding site; scaled: cognate 1, non-cognate 0); higher = stronger binding
# CONDITION SET: with NBS DNA site
In all, about 81,000 sequences were measured (“one-hybrid fitness for binding NBS DNA”: median about -0.1, highest 2% from about 0.36 on). This excerpt belongs to a sample that is enriched for the highest values.
Item-by-item account of one-hybrid fitness for binding NBS DNA

Lookup result for QRQN ; measured one-hybrid fitness for binding NBS DNA: 0.402

Lookup result for QRQC ; measured one-hybrid fitness for binding NBS DNA: 0.362

Lookup result for AMMM ; measured one-hybrid fitness for binding NBS DNA: ≤ 0.2

Lookup result for MWSR ; measured one-hybrid fitness for binding NBS DNA: ≤ 0.2

Lookup result for IAMY ; measured one-hybrid fitness for binding NBS DNA: ≤ 0.2
